Molecular target: Prolyl endopeptidase (Rattus norvegicus, UniProt O70196)
Sequence (O70196 whole entry): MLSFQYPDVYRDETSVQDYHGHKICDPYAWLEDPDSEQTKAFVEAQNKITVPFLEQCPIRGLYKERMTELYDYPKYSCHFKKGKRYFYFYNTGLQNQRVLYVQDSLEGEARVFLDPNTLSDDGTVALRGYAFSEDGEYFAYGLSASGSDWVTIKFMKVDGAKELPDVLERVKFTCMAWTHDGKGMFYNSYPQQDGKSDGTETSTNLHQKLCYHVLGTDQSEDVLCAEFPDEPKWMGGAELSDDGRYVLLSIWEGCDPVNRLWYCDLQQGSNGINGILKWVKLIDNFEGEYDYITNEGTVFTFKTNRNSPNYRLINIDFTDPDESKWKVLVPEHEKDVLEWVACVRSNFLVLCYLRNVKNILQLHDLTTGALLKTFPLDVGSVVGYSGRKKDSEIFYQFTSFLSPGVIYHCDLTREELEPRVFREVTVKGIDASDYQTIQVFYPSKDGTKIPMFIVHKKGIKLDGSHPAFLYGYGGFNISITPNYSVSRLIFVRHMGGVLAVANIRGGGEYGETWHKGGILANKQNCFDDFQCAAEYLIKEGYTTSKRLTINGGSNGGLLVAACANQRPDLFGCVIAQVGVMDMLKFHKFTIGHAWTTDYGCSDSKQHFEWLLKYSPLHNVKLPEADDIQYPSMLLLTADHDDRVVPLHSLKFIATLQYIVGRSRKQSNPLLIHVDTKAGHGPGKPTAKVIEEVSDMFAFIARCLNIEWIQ
Test: Inhibitory activity against rat brain Prolyl endopeptidase (PEP)
measure: pIC50
One number for each entry, as −log10 of the molar value.

The cases that follow already have their pIC50 on record.
compound string | assay value
CCCCCCC(=O)N1CSC[C@H]1C(=O)N1CCCC1 | 7.77
CCCC(=O)N1CSC[C@H]1C(=O)N1CCCC1 | 6.78
CCCCCCCCC=CCCCCCCCC(=O)N1CSC[C@H]1C(=O)N1CCCC1 | 6.98

Lab note: each molecule below needs its pIC50 filled in.
1. CCCCCCCCCCCCCCCCCC(=O)N1CSC[C@H]1C(=O)N1CCCC1
2. CCCCCCCC(=O)N1CSC[C@H]1C(=O)N1CCCC1

6.04
7.96
